- SUBJECT_OF_TEST: baker's yeast ALDH1 (Saccharomyces cerevisiae, UniProt P46367)
- Construct: purchased Sigma (St. Louis, MO, USA)
- Sequence (P46367 25-519): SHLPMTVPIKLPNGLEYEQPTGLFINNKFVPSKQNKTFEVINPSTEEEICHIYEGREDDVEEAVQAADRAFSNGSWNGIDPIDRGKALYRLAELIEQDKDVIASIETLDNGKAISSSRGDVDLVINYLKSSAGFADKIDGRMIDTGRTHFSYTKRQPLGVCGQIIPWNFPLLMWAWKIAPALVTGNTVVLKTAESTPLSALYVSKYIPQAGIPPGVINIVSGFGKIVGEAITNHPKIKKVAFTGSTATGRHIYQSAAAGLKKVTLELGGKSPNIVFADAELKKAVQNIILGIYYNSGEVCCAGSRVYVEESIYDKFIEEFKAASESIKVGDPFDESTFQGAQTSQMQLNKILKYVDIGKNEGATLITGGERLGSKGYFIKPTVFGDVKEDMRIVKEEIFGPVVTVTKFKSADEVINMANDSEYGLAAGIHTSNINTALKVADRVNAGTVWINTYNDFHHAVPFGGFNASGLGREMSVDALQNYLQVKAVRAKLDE
- METHOD_DESCRIPTION: In vitro ALDH1 inhibitory assay (propanal oxidation, NAD, OD 340 nm)
- Type: biochemical
- CONDITION_SUMMARY: IC50, 1 mM propanal, 2 mM NAD, pH 7.4, 25 °C
OBSERVATION_TYPE: IC50 (µM)
One number for each entry, in µM.

### Prompt What IC50 appears in the records for this molecule with baker's yeast ALDH1 (Saccharomyces cerevisiae, UniProt P46367)? O=C1/C(=C/c2ccc(O)c(O)c2)CCC/C1=C\c1ccc(O)c(O)c1
### Response 6.5

====

What IC50 was measured for each of the following?
- SUBJECT_OF_TEST: baker's yeast ALDH1 (Saccharomyces cerevisiae)
- Construct: purchased Sigma (St. Louis, MO, USA)
- Sequence (P46367 25-519): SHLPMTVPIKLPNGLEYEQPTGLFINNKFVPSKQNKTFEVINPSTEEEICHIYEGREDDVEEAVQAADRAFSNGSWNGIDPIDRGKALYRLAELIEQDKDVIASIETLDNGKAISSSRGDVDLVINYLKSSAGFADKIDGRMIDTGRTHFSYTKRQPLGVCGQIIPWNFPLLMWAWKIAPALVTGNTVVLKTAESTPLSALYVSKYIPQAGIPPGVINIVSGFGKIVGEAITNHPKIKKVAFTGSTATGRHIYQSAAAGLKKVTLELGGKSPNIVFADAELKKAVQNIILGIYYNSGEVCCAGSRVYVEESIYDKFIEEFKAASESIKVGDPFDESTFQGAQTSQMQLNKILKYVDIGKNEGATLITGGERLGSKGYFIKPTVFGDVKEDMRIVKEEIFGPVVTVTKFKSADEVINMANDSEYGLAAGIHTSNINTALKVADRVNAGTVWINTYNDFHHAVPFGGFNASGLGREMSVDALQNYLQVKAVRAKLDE
- METHOD_DESCRIPTION: In vitro ALDH1 inhibitory assay (propanal oxidation, NAD, OD 340 nm)
- Type: biochemical
- CONDITION_SUMMARY: Table 1; –log IC50; read-out: pIC50 (converted)
Give bare numbers, in µM.

Worked cases, answers included:
>  <SMI>
O=C1/C(=C/c2ccc(O)c(O)c2)CC/C1=C\c1ccc(O)c(O)c1

>  <SCALE_UNIT>
µM

>  <IC50>
3.47

$$$$
>  <SMI>
O=C1/C(=C/c2ccc(Br)cc2)CCC/C1=C\c1ccc(Br)cc1

>  <SCALE_UNIT>
µM

>  <IC50>
8.32

$$$$
>  <SMI>
O=C1/C(=C/c2ccc(O)cc2)COC/C1=C\c1ccc(O)cc1

>  <SCALE_UNIT>
µM

>  <IC50>
38.9

$$$$
>  <SMI>
O=C1/C(=C/c2ccccn2)CC/C1=C\c1ccccn1

>  <SCALE_UNIT>
µM

>  <IC50>
13.8

$$$$

Continue with the next molecule.
### Prompt What IC50 appears in the records for this molecule with baker's yeast ALDH1 (Saccharomyces cerevisiae)? O=C1/C(=C/c2cccs2)CC/C1=C\c1cccs1
### Response 29.5

====

What IC50 was measured for each of the following?
- SUBJECT_OF_TEST: baker's yeast ALDH1 (Saccharomyces cerevisiae, UniProt P46367)
- Construct: purchased Sigma (St. Louis, MO, USA)
- Sequence (P46367 25-519): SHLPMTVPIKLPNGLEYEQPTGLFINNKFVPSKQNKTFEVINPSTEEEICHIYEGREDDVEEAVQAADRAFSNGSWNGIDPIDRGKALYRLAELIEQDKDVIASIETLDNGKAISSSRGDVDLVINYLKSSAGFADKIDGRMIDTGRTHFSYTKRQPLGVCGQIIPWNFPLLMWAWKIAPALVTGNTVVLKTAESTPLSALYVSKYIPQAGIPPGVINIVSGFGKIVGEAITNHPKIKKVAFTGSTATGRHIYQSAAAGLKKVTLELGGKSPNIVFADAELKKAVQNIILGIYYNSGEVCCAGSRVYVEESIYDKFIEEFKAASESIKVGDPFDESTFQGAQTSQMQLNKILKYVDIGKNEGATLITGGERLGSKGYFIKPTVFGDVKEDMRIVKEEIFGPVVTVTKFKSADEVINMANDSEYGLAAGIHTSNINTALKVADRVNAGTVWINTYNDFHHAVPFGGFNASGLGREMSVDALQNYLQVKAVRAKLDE
- METHOD_DESCRIPTION: In vitro ALDH1 inhibitory assay (propanal oxidation, NAD, OD 340 nm)
- Assay type: biochemical
- CONDITION_SUMMARY: Table 3, experimental activity; read-out: Actual pIC50 (converted)
Answers are plain numbers, in µM.

Worked cases, answers included:
>  <SMI>
O=C1/C(=C/c2ccc(O)cc2)COC/C1=C\c1ccc(O)cc1

>  <SUBJECT_OF_TEST>
baker's yeast ALDH1 (Saccharomyces cerevisiae, UniProt P46367)

>  <SCALE_UNIT>
µM

>  <RECORDED_MEASUREMENT>
38.9

$$$$
>  <SMI>
O=C1/C(=C/c2cc(Br)c(O)c(Br)c2)CCC/C1=C\c1cc(Br)c(O)c(Br)c1

>  <SUBJECT_OF_TEST>
baker's yeast ALDH1 (Saccharomyces cerevisiae, UniProt P46367)

>  <SCALE_UNIT>
µM

>  <RECORDED_MEASUREMENT>
17.4

$$$$
>  <SMI>
COc1cc(/C=C2\COC/C(=C\c3cc(F)c(O)c(OC)c3)C2=O)cc(F)c1O

>  <SUBJECT_OF_TEST>
baker's yeast ALDH1 (Saccharomyces cerevisiae, UniProt P46367)

>  <SCALE_UNIT>
µM

>  <RECORDED_MEASUREMENT>
53.7

$$$$
>  <SMI>
O=C1/C(=C/c2ccc(O)c(O)c2)CSC/C1=C\c1ccc(O)c(O)c1

>  <SUBJECT_OF_TEST>
baker's yeast ALDH1 (Saccharomyces cerevisiae, UniProt P46367)

>  <SCALE_UNIT>
µM

>  <RECORDED_MEASUREMENT>
22.9

$$$$
>  <SMI>
O=C1/C(=C/c2ccc(O)c(O)c2)COC/C1=C\c1ccc(O)c(O)c1

>  <SUBJECT_OF_TEST>
baker's yeast ALDH1 (Saccharomyces cerevisiae, UniProt P46367)

>  <SCALE_UNIT>
µM

>  <RECORDED_MEASUREMENT>
7.94

$$$$

Please report IC50 for every entry that follows.
1. CN(C)c1ccc(/C=C2\CCC/C(=C\c3ccc(N(C)C)cc3)C2=O)cc1
2. COc1cc(/C=C2\CC/C(=C\c3ccc(O)c(OC)c3)C2=O)ccc1O
3. O=C1/C(=C/c2cc(Br)c(O)c(Br)c2)CSC/C1=C\c1cc(Br)c(O)c(Br)c1
4. COc1cc(/C=C2\CSC/C(=C\c3ccc(O)c(OC)c3)C2=O)ccc1O
5. COc1cc(/C=C2\CNC/C(=C\c3cc(OC)c(O)c(OC)c3)C2=O)cc(OC)c1O

### Response
[74.1, 24, 17.8, 31.6, 30.2]

Please report IC50 for every entry that follows.
1. O=C1/C(=C/c2ccccn2)CCC/C1=C\c1ccccn1
2. O=C1/C(=C/c2cc(Br)c(O)c(Br)c2)COC/C1=C\c1cc(Br)c(O)c(Br)c1
3. O=C1/C(=C/c2cccs2)CC/C1=C\c1cccs1
4. CN(C)c1ccc(/C=C2\CSC/C(=C\c3ccc(N(C)C)cc3)C2=O)cc1
5. O=C1/C(=C/c2ccncc2)CSC/C1=C\c1ccncc1
6. COc1cc(/C=C2\COC/C(=C\c3cc(OC)c(O)c(OC)c3)C2=O)cc(OC)c1O
7. O=C1/C(=C/c2ccc(O)cc2)CC/C1=C\c1ccc(O)cc1

### Response
[18.2, 18.6, 29.5, 69.2, 10.7, 16.6, 63.1]
